# Lookup of reported Average OD keyed by entry
biological target: GST-PSD95 PDZ domain 2 (human); assay: G assay
EXPERIMENTAL READOUT: Average OD (OD)

[
  {
    "BINDER": "KDITSDSENSNFRNEIQSLV (modifications not checked)",
    "EXPERIMENTAL READOUT": "Average OD",
    "READING": 1.35
  },
  {
    "BINDER": "GRWTGRAMSAWKPTRRETEV (modifications not checked) [HPV E6 #35 (cysteine-free) PL peptide]",
    "EXPERIMENTAL READOUT": "Average OD",
    "READING": 2.82
  },
  {
    "BINDER": "RSGATIPLVGQDIIDLQTEV (modifications not checked)",
    "EXPERIMENTAL READOUT": "Average OD",
    "READING": 1.23
  },
  {
    "BINDER": "TTNNNPNSAVNIKKIFTDV (modifications not checked) [KV1.3 PL peptide]",
    "EXPERIMENTAL READOUT": "Average OD",
    "READING": 1.06
  },
  {
    "BINDER": "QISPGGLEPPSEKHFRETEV (modifications not checked) [20 C-terminal amino acids from TAX]",
    "EXPERIMENTAL READOUT": "Average OD",
    "READING": 2.39
  }
]
